target-system: T1, COI1/ASK1 complex (full-length Arabidopsis thaliana COI1 co-expressed with ASK1) (Arabidopsis thaliana, UniProt Q39255 1-160)
T1 construct: mature; Purified from Hi5 insect cells; co-purifies with Ins(1,2,4,5,6)P5 cofactor; also called COI/ASK1; untreated COI1
T1 sequence 1: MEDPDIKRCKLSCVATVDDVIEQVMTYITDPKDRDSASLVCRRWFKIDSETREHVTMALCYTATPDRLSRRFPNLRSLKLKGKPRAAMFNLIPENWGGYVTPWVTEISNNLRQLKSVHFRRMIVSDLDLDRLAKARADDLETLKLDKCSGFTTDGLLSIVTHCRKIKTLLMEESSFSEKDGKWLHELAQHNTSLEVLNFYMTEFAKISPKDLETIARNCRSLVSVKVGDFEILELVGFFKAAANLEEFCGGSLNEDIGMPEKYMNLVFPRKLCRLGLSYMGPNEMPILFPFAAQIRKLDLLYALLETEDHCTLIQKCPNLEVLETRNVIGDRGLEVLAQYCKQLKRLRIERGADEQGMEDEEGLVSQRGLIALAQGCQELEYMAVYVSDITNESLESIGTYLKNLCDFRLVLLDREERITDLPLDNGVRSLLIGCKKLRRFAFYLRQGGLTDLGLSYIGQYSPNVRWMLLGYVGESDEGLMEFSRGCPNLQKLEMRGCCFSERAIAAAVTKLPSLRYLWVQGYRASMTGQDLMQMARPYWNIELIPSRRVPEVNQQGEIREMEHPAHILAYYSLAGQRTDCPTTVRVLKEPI
T1 sequence 2: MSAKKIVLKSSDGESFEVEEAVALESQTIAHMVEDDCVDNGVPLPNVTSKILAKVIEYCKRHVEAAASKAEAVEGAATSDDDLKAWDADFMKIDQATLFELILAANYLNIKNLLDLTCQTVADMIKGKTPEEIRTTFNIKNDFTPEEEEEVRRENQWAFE
protocol-description: 3H-coronatine radioligand binding with COI1/ASK1 and synthetic peptide

binder: LPIARRASLHRFLEKRKDRV [JAZ1 + 4 extension]
binding result: binds
//
binder: VERIARRASLHRFFAKRKDRV [JAZ6 + 5 extension]
binding result: no binding
//
binder: VERIARRASLHRFLEKRKDRV [JAZ1 + 5 extension from JAZ6]
binding result: no binding
//
binder: ELPIARRASLHRFLEKRKDRVTSKAPY (also called JAZ1-extension +5+PY; JAZ1 +5 extension with the six C-terminal residues added back on) [JAZ1 + 6 extension + PY motif]
binding result: binds
//
binder: AAAAARRASLHRFLEKRKDRV [JAZ1 + polyA extension]
binding result: no binding
//
binder: QQHQVVERIARRASLHRFFAKRKDRV [JAZ6 + 10 extension]
binding result: no binding
//
binder: YQKASMKRSLHSFLQKRSLRI [JAZ7 + 5 extension]
binding result: no binding
